B1: LRRK2 RocCOR tandem domain (LexA-BD bait, wild type) [human] / TUBB C terminus (Phe-317 to the stop codon), GAL4-AD prey [human] (parent)
chain 1: KAVPYNRMKLMIVGNTGSGKTTLLQQLMKTKKSDLGMQSATVGIDVKDWPIQIRDKRKRDLVLNVWDFAGREEFYSTHPHFMTQRALYLAVYDLSKGQAEVDAMKPWLFNIKARASSSPVILVGTHLDVSDEKQRKACMSKITKELLNKRGFPAIRDYHFVNATEESDALAKLRKTIINESLNFKIRDQLVVGQLIPDCYVELEKIILSERKNVPIEFPVIDRKRLLQLVRENQLQLDENELPHAVHFLNESGVLLHFQDPALQLSDLYFVEPKWLCKIMAQILTVKVEGCPKHPKGIISRRDVEKFLSKKRKFPKNYMSQYFKLLEKFQIALPIGEEYLLVPSSLSDHRPVIELPHCENSEIIIRLYEMPYFPMGFWSRLINRLLEISPYMLSGRERALRPNRMYWRQGIYL
chain 2: FRGRMSMKEVDEQMLNVQNKNSSYFVEWIPNNVKTAVCDIPPRGLKMAVTFIGNSTAIQELFKRISEQFTAMFRRKAFLHWYTGEGMDEMEFTEAESNMNDLVSEYQQYQDATAEEEEDFGEEAEEEA

Variants of: B1
Assay: quantitative yeast two-hybrid (Q-YTH)
Settings: with TUBB C terminus (Phe-317 to the stop codon), n = 5, read off a plot
recordedMetric: percent of parent (%)

chain 1 T164A : 97
chain 1 T16D : 58

[1] chain 1 T164D
[2] chain 1 T16A
Query: Thinking about recorded percent of parent values, which is higher, 1 or 2 ? Lab log: write the label of the selected item as the result.
Result: 2
(2: 130%, 1: 35%)
